Origin of measurements: paper PMC5618426

biological target: hKV10.1a (hEag1) (Homo sapiens); assay: two-electrode voltage clamp, KV10.1 in Xenopus laevis oocytes; format: cell-based; details: 7 concentrations; logistic fit; 2 s pulse to 0 mV from −90 mV; ND96; mean ± SEM, n ≥ 3; read-out: IC50 for KV10.1 current inhibition
Sequence (O95259 other isoform, or with tags, fused parts or gaps): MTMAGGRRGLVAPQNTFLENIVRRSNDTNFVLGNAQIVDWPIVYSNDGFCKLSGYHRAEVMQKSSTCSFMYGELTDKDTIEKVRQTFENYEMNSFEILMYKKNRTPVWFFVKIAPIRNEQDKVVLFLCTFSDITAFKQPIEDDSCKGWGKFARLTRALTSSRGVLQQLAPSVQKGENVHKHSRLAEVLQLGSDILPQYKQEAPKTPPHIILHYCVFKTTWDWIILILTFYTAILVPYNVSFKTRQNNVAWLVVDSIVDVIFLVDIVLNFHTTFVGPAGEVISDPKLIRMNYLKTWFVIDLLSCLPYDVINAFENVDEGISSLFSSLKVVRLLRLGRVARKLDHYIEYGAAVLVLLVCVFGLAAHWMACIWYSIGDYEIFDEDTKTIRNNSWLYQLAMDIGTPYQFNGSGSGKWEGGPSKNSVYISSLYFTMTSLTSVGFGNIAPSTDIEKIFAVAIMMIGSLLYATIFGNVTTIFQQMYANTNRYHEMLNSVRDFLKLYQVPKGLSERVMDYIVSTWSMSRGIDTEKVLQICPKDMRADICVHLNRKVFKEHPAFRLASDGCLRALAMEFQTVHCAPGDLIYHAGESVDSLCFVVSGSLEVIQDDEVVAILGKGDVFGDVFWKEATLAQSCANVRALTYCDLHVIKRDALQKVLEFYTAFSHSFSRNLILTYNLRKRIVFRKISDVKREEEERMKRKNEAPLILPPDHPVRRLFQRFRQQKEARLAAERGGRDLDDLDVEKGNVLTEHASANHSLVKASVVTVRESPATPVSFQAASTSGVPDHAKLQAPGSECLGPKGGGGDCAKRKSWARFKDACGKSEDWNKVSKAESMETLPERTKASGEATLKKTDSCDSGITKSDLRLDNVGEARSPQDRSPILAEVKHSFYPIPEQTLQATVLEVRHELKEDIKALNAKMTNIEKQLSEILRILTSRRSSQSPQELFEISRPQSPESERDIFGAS
Positions of bridges follow the written chain, without caps; N, C: chain ends. No end group written: not given here.
Assay readout: IC50 (nM)
Write the value in nM as a bare number.

input: May I ask what IC50 has been recorded for GTTCYCGKTIGIYWFGKYSCPTNRGYTGSCPYFLGICCYPVD (disulfide 4-37, 6-30, 20-38) [APETx4] ?
output: 1010
